Measured growth values are reported for all entries that follow.
System: 786-0 renal
Assay: NCI-60 one-dose screen, 48 h (100 = growth as untreated, 0 = no growth, -100 = all killed)
Conditions: 10 µM unless noted
The panel holds about 83,000 compounds, 20% with a hit somewhere; the sample as a whole holds those more often.
measured.quantity: growth (%)

>>> print(df.to_string())
                              smiles_string  target_entity  scale_unit  recorded_measurement
0          OC(CCN1CCCCC1)(c1ccccc1)c1ccccc1    786-0 renal           %                  98.1
1                       CN(C)c1ncnc2c1cnn2C    786-0 renal           %                    99
2                               S=CN1CCCCC1    786-0 renal           %                   102
3                  Oc1ccc2ccccc2c1CN1CCOCC1    786-0 renal           %                   109
4             COC(=O)c1cccc([N+](=O)[O-])c1    786-0 renal           %                   104
5  Cc1onc(-c2c(F)cccc2Cl)c1-c1ncc(-c2ccc(Br)cc2)o1    786-0 renal           %                  10.7
6                         CC(=O)c1cccc(O)c1    786-0 renal           %                    96
7        Oc1ccc(N=Cc2ccc(OCc3ccccc3)cc2)cc1    786-0 renal           %                  99.4
